# Test system: PPARg DBDmut IVT, anti-PPARg (DBD mutation: PPARg1 K132A/R137A, NR concentration 270 nM)
# experiment: PBM binding z-score (relative to random genomic background probes); higher = stronger binding; sequences stand for … in GC…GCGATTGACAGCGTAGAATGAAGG
We use 0.8 as the dividing line for PBM binding z-score: on or above the line is 1 (yes), below is 0 (no).

* CCTTACGGGTCACAGACAGGTTATAGCATTTGGA | 1 (yes)
* CTCGAAAGGTCGTGCTCAGGTGAGTATCCCAAAC | 0 (no)
* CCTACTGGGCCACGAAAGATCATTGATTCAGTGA | 0 (no)
* GCAACTGGGGCATCAGCAGGTTACCATAACTTAA | 0 (no)
* CCAACTGGGCCAAAGGTCATTGATTCCAATGCTC | 1 (yes)

Req: Could you tell me if the measured PBM binding z-score of `CAAACTAGGTCACAGAGGTCAAAGGCCGTGCGTA` reaches 0.8 or more?
Resp: 1 (yes)

Req: Then what about the sequence `ACTTACGGGTCGACGAGGTTATAGCACGCGTATA` ?
Resp: 0 (no)

Req: Then what about the sequence `AGCCAAAGTTCATCTAGGTAACGTAAGATATGCT` ?
Resp: 0 (no)

----------
# Test system: RARb:RXRa (NR concentration 270 nM, RXRa partner concentration 90 nM)
# experiment: PBM binding z-score (relative to random genomic background probes); higher = stronger binding; sequences stand for … in GC…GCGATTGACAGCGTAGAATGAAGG
Measured PBM binding z-score of individual entries

Some sequences with recorded PBM binding z-score:
* CCGCGTAGGTTATGGGGCATTCAGGCAACGGTGA | 0.985
* AGAACGAGGGCAATGAGTTGATAGCTCGGGTGGC | 2.08
* CGTCAAAGTTCAAGGTAACGTATCAGAAAGCAGC | 4.98

Now examine the next entry.
Req: # value lookup — system RARb:RXRa (NR concentration 270 nM, RXRa partner concentration 90 nM), readout PBM binding z-score, item `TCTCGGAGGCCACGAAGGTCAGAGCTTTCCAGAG`
Resp: 3.38

----------
# System: PPARg:RXRa IVT, anti-PPARg (NR concentration 270 nM, RXRa partner concentration 90 nM)
# experiment: PBM binding z-score (relative to random genomic background probes); higher = stronger binding; sequences stand for … in GC…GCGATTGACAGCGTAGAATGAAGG
We use 3 as the dividing line for PBM binding z-score: on or above the line is Satisfied, below is Not satisfied.

• CGTCCAAGGTCAATGCTAGGTCAGTGGAAGCATT = Satisfied

Req: Could you tell me if the measured PBM binding z-score of `GCATATAGGTAATACATGGTGAAAGTCCGATTGT` reaches 3 or more?
Resp: Not satisfied

Req: Then what about the sequence `TGATTGAGGTTAAAGATCAGGGAACGTGGCGTCG` ?
Resp: Satisfied

Req: Then what about the sequence `AGAACGCGGGCACGCTGAGTTGATAGCAGAGTAG` ?
Resp: Not satisfied

Req: Then what about the sequence `AATACCGGGTCACTAGGCCAGAGTAGGTACGAAT` ?
Resp: Satisfied

----------
# System: LXRa homodimer (NR concentration 270 nM)
# experiment: PBM binding z-score (relative to random genomic background probes); higher = stronger binding; sequences stand for … in GC…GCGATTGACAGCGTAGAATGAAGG
quantity-name: PBM binding z-score

Some sequences with recorded PBM binding z-score:
* GCTATTAGTTGAAAGGGCAACAGAATGATTCTCG | 0.402
* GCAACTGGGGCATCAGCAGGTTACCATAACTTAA | -0.205

Now examine the next entry.
Req: May I ask what PBM binding z-score has been recorded for `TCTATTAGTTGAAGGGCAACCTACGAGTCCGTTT` ?
Resp: 0.394

----------
# Test system: PPARg DBDmut:RXRa IVT, anti-PPARg (DBD mutation: PPARg1 K132A/R137A, NR concentration 270 nM, RXRa partner concentration 90 nM)
# experiment: PBM binding z-score (relative to random genomic background probes); higher = stronger binding; sequences stand for … in GC…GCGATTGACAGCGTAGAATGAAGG
We use 0.4 as the dividing line for PBM binding z-score: on or above the line is Met, below is Not met.

Req: Could you tell me if the measured PBM binding z-score of `CAAAGTAGGTCAAAGGTCAAAGTCGAGCCAACCA` reaches 0.4 or more?
Resp: Met

Req: Then what about the sequence `CGTCCAAGGTCAGGGTCAGTGAAAGAGACTCGAA` ?
Resp: Not met

Req: Then what about the sequence `TCTGCTAGGTCAACGATGGTCACCTAATCTGCTA` ?
Resp: Met

Req: Then what about the sequence `AGAACGAGGGCAATTAGTTGATAGCACGGGTGGC` ?
Resp: Met

Req: Then what about the sequence `ATACCAAGGTGATGGTGAGGTCGTTGATACTAAC` ?
Resp: Met

Req: Then what about the sequence `ACACACAGGTGAGTGAAGGTAACTCAGCTGGACG` ?
Resp: Not met

----------
# Tested on: RARb homodimer (NR concentration 270 nM)
# experiment: PBM binding z-score (relative to random genomic background probes); higher = stronger binding; sequences stand for … in GC…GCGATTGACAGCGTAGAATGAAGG
quantity-name: PBM binding z-score

• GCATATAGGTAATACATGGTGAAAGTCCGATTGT = -0.181
• TCTTGTAGATCAGCAGGTTACGAAAGCTGGCCAA = 0.128
• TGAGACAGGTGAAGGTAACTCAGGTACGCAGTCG = 0.449
• ATCGAAAGGTCGAAGAGGTGAGTATACACCGTTT = 2.74
• CTCGAAAGGTCGGTTGTGGTGAGTATACGGATAA = 1.92
• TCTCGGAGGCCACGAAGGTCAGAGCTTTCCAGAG = 3.74
• ACTAGCCGGCCAAGTTTGGGTCACTCAAACAAAG = 2.27
• CTCGAAAGGTCGGTTGAGGTGAATATACGGATAA = 2.32
• GCTAGCAAGCCATTTGGGTCACTCAATGACGGGC = 1.36
• GTACCAACGTGAATAGGTCGTTGATGAGTAGGCG = 0.16

Req: May I ask what PBM binding z-score has been recorded for `CCTCGGAGGACAACAGGACGTCAGAGCTGCCAGA` ?
Resp: 0.189

Req: Then what about the sequence `TATACAGGGGCAAAGGCCAGAGTACGAATGTCGA` ?
Resp: 1.74

Req: Then what about the sequence `GCTGCTAGGTCAACTGATGGTCAGCTATAGCTCG` ?
Resp: 3.72

Req: Then what about the sequence `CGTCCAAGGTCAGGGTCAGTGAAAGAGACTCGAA` ?
Resp: 4.57

Req: Then what about the sequence `ATCTCAAGGTAAAGATAGTTCAGTGAATGCAAAT` ?
Resp: 0.976

Req: Then what about the sequence `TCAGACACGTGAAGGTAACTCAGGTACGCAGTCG` ?
Resp: 0.104

Req: Then what about the sequence `CGTCCAAGGTCCAGGTCAGTGAAAGAGACTCGAA` ?
Resp: 2.38

Req: Then what about the sequence `AGATCGAGGGCACGCTGAGTTGATAGCAGAGTAG` ?
Resp: 0.796

Req: Then what about the sequence `CCTGCTAGGTGATGGTCAGCTAATCTACAGTATG` ?
Resp: -0.121

Req: Then what about the sequence `GGAACGAGGGCATTCGGGTTGATAGCATGGCGAT` ?
Resp: 0.654

----------
# System: PXR homodimer (NR concentration 270 nM)
# experiment: PBM binding z-score (relative to random genomic background probes); higher = stronger binding; sequences stand for … in GC…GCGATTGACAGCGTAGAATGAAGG
Measured PBM binding z-score of individual entries
Returns: the value as a bare number; no unit string appended.

Some sequences with recorded PBM binding z-score:
- GCTGCTAGGTCAGGTTGGTCAGCCAACGGGTACG: -0.305
- CGTCCAAGGTCAGCAGGTCATTGAAAGCGACGTG: 0.829
- CCTAACGGGTCACGAGGTTATAGCACGACGAGCG: 0.408

Req: May I ask what PBM binding z-score has been recorded for `TAGCCTAGGTCATTCAGGGGCCAGTGTAGAAAGC` ?
Resp: -0.259

Req: Then what about the sequence `GGTAGTTGGTCAGTAAAAGGTCACACACCGGTCG` ?
Resp: 1.37

Req: Then what about the sequence `TCATCTAGGTAATACAGGTGAAAGTCGGCATCTA` ?
Resp: 0.512

Req: Then what about the sequence `GATACAGGGTCTAGGCCAGAGTACGCGTATTGAT` ?
Resp: -0.433

Req: Then what about the sequence `TGAATGAGGTTATAAGATCAGGGTACGTTGCAAA` ?
Resp: 0.33

Req: Then what about the sequence `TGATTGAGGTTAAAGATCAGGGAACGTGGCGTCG` ?
Resp: 0.148

Req: Then what about the sequence `TCATGTAGATCAATAGAGGTTAAGAAAGTGCGCT` ?
Resp: 0.426

Req: Then what about the sequence `GCTGCTAGGTCAGGTTGGACAGCTAACGGGTACG` ?
Resp: -0.273

Req: Then what about the sequence `AGTCAAAGTTAAGGACGAGGTAACGTAAAGCACG` ?
Resp: 0.18

Data provenance is the supplement of paper PMC6555819.
